Assay: Protein binding in human plasma assessed as free fraction at 0.25 mg/ml measured after 48 hrs by RP-HPLC analysis relative to control
Type: ADME, cell-free

STRUCTURE STRING: CC(=O)O.C[C@@H]1[C@H](O)[C@@H](C)/C=C/C=C/CC/C=C/C=C/C=C/C=C/[C@H](O[C@@H]2O[C@H](C)[C@@H](O)[C@H](N)[C@@H]2O)C[C@@H]2O[C@](O)(C[C@@H](O)[C@H](O)CC[C@@H](O)C[C@@H](O)C[C@@H](O)CC(=O)O[C@H]1C)C[C@H](O)[C@H]2C(=O)NCCO
fraction unbound at 48 h, 0.25 mg/ml: 0.4

----------
Tested on: Aspergillus niger
Experiment: Antifungal activity against Aspergillus niger ATCC 20057 assessed as reduction in fungal growth incubated overnight by broth dilution method
Type: functional
Where a SMILES comes first, the peptide text is derived from it. Bridges are numbered along the chain shown (N, C = ends). [ ]: non-standard residue; d: D form. The star is where a group is joined. X1 = CC[C@H](C)CCCCC(=O)*; Dab = NCC[C@H](N)C(=O)O
# MIC values compiled below

COMPOUND: Clc1ccc(COC(Cn2ccnc2)c2ccc(Cl)cc2Cl)cc1 (stereo not given)
UNIT TEXT: µg/mL
INEQUALITY SIGN: >
MIC: 35
//
COMPOUND: C[C@@H]1[C@H](O)[C@@H](C)/C=C/C=C/C=C/C=C/C=C/C=C/C=C/[C@H](O[C@@H]2O[C@H](C)[C@@H](O)[C@H](N)[C@@H]2O)C[C@@H]2O[C@](O)(C[C@@H](O)C[C@@H](O)[C@H](O)CC[C@@H](O)C[C@@H](O)CC(=O)O[C@H]1C)C[C@H](O)[C@H]2C(=O)O
UNIT TEXT: µg/mL
INEQUALITY SIGN: =
MIC: 31.5
//
COMPOUND: CC(=O)O.COC(=O)[C@H]1[C@@H]2C[C@@H](O[C@@H]3O[C@H](C)[C@@H](O)[C@H](N)[C@@H]3O)/C=C/C=C/C=C/C=C/CC/C=C/C=C/[C@H](C)[C@@H](O)[C@@H](C)[C@H](C)OC(=O)C[C@H](O)C[C@H](O)C[C@H](O)CC[C@@H](O)[C@H](O)C[C@](O)(C[C@@H]1O)O2
UNIT TEXT: µg/mL
INEQUALITY SIGN: >
MIC: 35
//
COMPOUND: CC[C@H](C)CCCCC(=O)N[C@@H](CCN)C(=O)N[C@H](C(=O)N[C@@H](CCN)C(=O)N[C@H]1CCNC(=O)[C@H]([C@@H](C)O)NC(=O)[C@H](CCN)NC(=O)[C@H](CCN)NC(=O)[C@H](CC(C)C)NC(=O)[C@@H](Cc2ccccc2)NC(=O)[C@H](CCN)NC1=O)[C@@H](C)O (X1-[Dab]T[Dab][Dab][Dab][dF]L[Dab][Dab]T; lactam 4-C)
UNIT TEXT: µg/mL
INEQUALITY SIGN: >
MIC: 35
//
COMPOUND: CC(=O)O.C[C@@H]1[C@H](O)[C@@H](C)/C=C/C=C/CC/C=C/C=C/C=C/C=C/[C@H](O[C@@H]2O[C@H](C)[C@@H](O)[C@H](N)[C@@H]2O)C[C@@H]2O[C@](O)(C[C@@H](O)[C@H](O)CC[C@@H](O)C[C@@H](O)C[C@@H](O)CC(=O)O[C@H]1C)C[C@H](O)[C@H]2C(=O)NCCO
UNIT TEXT: µg/mL
INEQUALITY SIGN: =
MIC: 23.6

Origin of measurements: ChEMBL document CHEMBL5029198
